# measurement_notes: physchem
# measurement_setup: octanol/water, pH 6.5, logD
reported_metric: logD
Give bare numbers.

Exercise: Consider the compound `CC(=O)Oc1ccccc1C(=O)O` . State its measured logD.
Key: -1.81

Exercise: Consider the compound `C[C@@H]1C[C@H]2[C@@H]3CCC4=CC(=O)C=C[C@]4(C)[C@@]3(F)[C@@H](O)C[C@]2(C)[C@@]1(O)C(=O)CO` . State its measured logD.
Key: 1.83

Exercise: Consider the compound `CNCCC[C@]12CC[C@H](c3ccccc31)c1ccccc12` . State its measured logD.
Key: 0.52

Exercise: Consider the compound `O=C(CCCN1CCC(O)(c2ccc(Cl)cc2)CC1)c1ccc(F)cc1` . State its measured logD.
Key: 1.42

Exercise: Consider the compound `C#C[C@]1(O)CC[C@H]2[C@@H]3CCC4=CC(=O)CC[C@@H]4[C@H]3CC[C@@]21C` . State its measured logD.
Key: 2.97

Exercise: Consider the compound `CN(C/C=C/C#CC(C)(C)C)Cc1cccc2ccccc12` . State its measured logD.
Key: 3.3

Now for a further compound.
Exercise: Consider the compound `C#C[C@]1(O)CC[C@H]2[C@@H]3CCc4cc(O)ccc4[C@H]3CC[C@@]21C` . State its measured logD.
Key: 3.67
